The measured values listed here are drawn from ChEMBL document CHEMBL1759845.

system: Hepatitis C virus; assay: Antiviral activity against Hepatitis C virus JFH-1 J6 infected in human HuH7.5 cells assessed as inhibition of virus propagation measured after 72 hrs of transfer to fresh media; assay type: functional, organism-based, Hepacivirus hominis; settings: subtype 2a JFH1 J6, Huh-7, 72 h
pEC50: −log10 of the molar value.
Label Yes when pEC50 >= 6; otherwise No.

>>> category("COc1ccc2c(O[C@@H]3C[C@H]4C(=O)N[C@]5(C(=O)O)C[C@H]5/C=C\\CCCCC[C@H](NC(=O)OC5CCCC5)C(=O)N4C3)cc(-c3csc(NC(C)C)n3)nc2c1")
"Yes"
>>> category("COC(=O)C1=C(C(=O)OC)[C@@H]2N(CCCCCN3c4ccccc4[C@]45CCC(=O)N(Cc6ccccc6)C4=NC(C(=O)OC)=C(C(=O)OC)[C@H]35)c3ccccc3[C@@]23CCC(=O)N(Cc2ccccc2)C3=N1 (mixture of isomers)")
"No"
>>> category("COC(=O)C1=C(C(=O)OC)[C@@H]2N(CCCCCn3cc(CNC(C)=O)nn3)c3ccccc3[C@@]23CCC(=O)N(Cc2ccccc2)C3=N1 (racemic)")
"No"

Consider the record given below.
Could you tell me if the measured pEC50 of `COC(=O)C1=C(C(=O)OC)[C@@H]2N(CCOCCN3c4ccccc4[C@]45CCC(=O)N(Cc6ccccc6)C4=NC(C(=O)OC)=C(C(=O)OC)[C@H]35)c3ccccc3[C@@]23CCC(=O)N(Cc2ccccc2)C3=N1` reaches 6 or more?
No

---

system: Hepatitis C virus; assay: Antiviral activity against Hepatitis C virus JFH-1 J6 infected in human HuH7.5 cells assessed as inhibition of virus propagation measured after 72 hrs; format: functional, organism-based, Hepacivirus hominis; conditions: subtype 2a JFH1 J6, Huh-7, 72 h
Here the recorded pEC50 is given for each entry.
Note: pEC50 values are expressed as the negative base-10 logarithm of concentration in M.

>>> data_value("COC(=O)C1=C(C(=O)OC)[C@@H]2N(CCCCCn3cc(-c4ccc(OC)cc4C)nn3)c3ccccc3[C@@]23CCC(=O)N(Cc2ccccc2)C3=N1 (racemic)")
5.85

Next compound, pEC50 to be filled in.
Returns the measured pEC50 for the input compound. Input: COC(=O)C1=C(C(=O)OC)[C@@H]2N(CCCCCN3c4ccccc4[C@]45CCC(=O)N(Cc6ccccc6)C4=NC(C(=O)OC)=C(C(=O)OC)[C@H]35)c3ccccc3[C@@]23CCC(=O)N(Cc2ccccc2)C3=N1 (mixture of isomers)
7.05

---

system: Hepatitis C virus; test: Antiviral activity against Hepatitis C virus JFH-1 J6 infected in human HuH7.5 cells assessed as inhibition of virus propagation measured after 72 hrs; type: functional, organism-based, Hepacivirus hominis; conditions: subtype 2a JFH1 J6, Huh-7, 72 h
QUANTITY: EC50 (µM)
Write the value in µM as a bare number.

>>> data_value("COc1ccc2c(O[C@@H]3C[C@H]4C(=O)N[C@]5(C(=O)O)C[C@H]5/C=C\\CCCCC[C@H](NC(=O)OC5CCCC5)C(=O)N4C3)cc(-c3csc(NC(C)C)n3)nc2c1")
0.072

Returns the measured EC50 for the input molecule. Input: `COC(=O)C1=C(C(=O)OC)[C@@H]2N(CCOCCN3c4ccccc4[C@]45CCC(=O)N(Cc6ccccc6)C4=NC(C(=O)OC)=C(C(=O)OC)[C@H]35)c3ccccc3[C@@]23CCC(=O)N(Cc2ccccc2)C3=N1`
0.48

Returns the measured EC50 for the input molecule. Input: `COC(=O)C1=C(C(=O)OC)[C@@H]2N(CCCN3c4ccccc4[C@]45CCC(=O)N(Cc6ccccc6)C4=NC(C(=O)OC)=C(C(=O)OC)[C@H]35)c3ccccc3[C@@]23CCC(=O)N(Cc2ccccc2)C3=N1`
0.088

Returns the measured EC50 for the input molecule. Input: COC(=O)C1=C(C(=O)OC)[C@@H]2N(CCCCCn3cc(CNC(C)=O)nn3)c3ccccc3[C@@]23CCC(=O)N(Cc2ccccc2)C3=N1 (racemic)
26.2
